- Test protocol: Human plasma protein binding (equilibrium dialysis)
- Assay type: in vitro ADME
- Test conditions: pH 7.4, 10 µM, 37 °C, read-out: human PPB (plasma protein binding) (converted)
What fraction unbound was measured for each of the following?
One number for each entry.

Consider the following illustrative entries.
CCCN1CCCN(c2ncc(-c3cc4nccc(Nc5cnccn5)c4cc3C)cn2)CC1 [8d] | 0.12
Cc1cc2c(Nc3cnccn3)ccnc2cc1-c1cnc(N2CCCNCC2)nc1 [8e] | 0.3
CCCN1CCCN(c2ncc(-c3ccc4c(Nc5cnccn5)ccnc4c3C)cn2)CC1 [9d] | 0.06

Give me fraction unbound for each of these molecules, listed below.
1. CCN1CCCN(c2ncc(-c3cc4nccc(Nc5cnccn5)c4cc3C)cn2)CC1 [8c]
2. CCN1CCCN(c2ncc(-c3ccc4c(Nc5cnccn5)ccnc4c3C)cn2)CC1 [9c]
3. Cc1c(-c2cnc(N3CCCN(C)CC3)nc2)ccc2c(Nc3cnccn3)ccnc12 [9b]
4. Cc1c(-c2cnc(N3CCCNCC3)nc2)ccc2c(Nc3cnccn3)ccnc12 [9e]
5. Cc1cc2c(Nc3cnccn3)ccnc2cc1-c1cnc(N2CCCN(C)CC2)nc1 [8b]

Ans:
1. 0.16
2. 0.12
3. 0.18
4. 0.24
5. 0.18

---

- Tested on: adult S. mansoni
- Test protocol: Phenotypic screen of adult S. mansoni worms, severity scores and descriptors
- Type: cell-based, Schistosoma mansoni
- Test conditions: adult schistosomes, 10 μM
Measure name: bioactivity against adult S. mansoni

CCCN1CCN(c2ncc(-c3ccc4c(Nc5cnccn5)ccnc4c3)cn2)CC1 | activity after 5 h
CCN1CCN(c2ncc(-c3ccc4c(Nc5cnccn5)ccnc4c3)cn2)CC1 | activity after 5 h

---

- Test protocol: Aqueous pH 7.4 solubility
- Format: physicochemical
- Test conditions: aqueous buffer, thermodynamic from solid; phosphate buffer pH 7.4, 25 °C, 20-24 h; read-out: aq sol (aqueous solubility)
Each record's class is read off its solubility using these ranges: low (below 4 µM), moderate (4 µM to below 30 µM), high (30 µM or more)

Fc1cccc(COc2ccc(Nc3ncnc4ccc(-c5cccc(N6CCOCC6)c5)cc34)cc2Cl)c1 [compound 2] | low
c1cnc(Nc2ccnc3cc(-c4cnc(N5CCCNCC5)nc4)ccc23)cn1 [4g] | high
COc1ccc(NC(=O)c2ccc(-c3ccc(S(=O)(=O)N4CCN(C)CC4)cc3)cc2O)cc1Cl [7c] | moderate
CN1CCCN(c2ncc(-c3ccc4c(c3)ncc3c5ccccc5[nH]c43)cn2)CC1 [6b] | high
O=S(=O)(c1ccc(-c2ccc3nccc(Nc4ncccn4)c3c2)cc1)N1CCOCC1 [S3b] | high
COc1ccc(NC(=O)c2ccc(-c3cccc(N4CCOCC4)c3)cc2N)cc1Cl [7e] | low
Cc1cnc(Nc2ccnc3cc(-c4cnc(N5CCN(C)CC5)nc4)ccc23)cn1 [5a] | moderate
c1cc(-c2ccc3c(c2)ncc2c4ccccc4[nH]c32)cc(N2CCOCC2)c1 [6a] | low

We next turn to a different compound, shown below.
Q: Input COc1ccc(NC(=O)c2ccc(-c3cnc(N4CCN(C)CC4)nc3)cc2O)cc1Cl [7a] ; output its category
Ans: moderate

---

- Tested on: adult S. mansoni
- Test protocol: Phenotypic screen of adult S. mansoni worms, severity scores and descriptors
- Format: cell-based, Schistosoma mansoni
- Test conditions: adult S. mansoni, 10 µM, 1 h; phenotypic descriptors
Measure name: Descriptors (10 µM) 1 h

Consider the following illustrative entries.
O=S(=O)(c1ccc(-c2ccc3nccc(Nc4ccncn4)c3c2)cc1)N1CCOCC1 | none
CN1CCN(c2ncc(-c3ccc4c(NCCN5CCCC5)ccnc4c3)cn2)CC1 | none
CCN1CCCN(c2ncc(-c3ccc4c(Nc5cnccn5)ccnc4c3C)cn2)CC1 | none
CN1CCC(Nc2ccnc3ccc(-c4ccc(S(=O)(=O)N5CCOCC5)cc4)cc23)CC1 | none
O=C(O)C1CCCN1c1ncc(-c2ccc3c(Nc4cnccn4)ccnc3c2)cn1 (stereo not shown) | none

Give me Descriptors (10 µM) 1 h for each of these compounds, listed below.
1. CN1CCCN(c2ncc(-c3ccc4c(Nc5cnccn5)ccnc4c3)cn2)CC1
2. CN1C[C@H]2C[C@@H]1CN2c1ncc(-c2ccc3c(Nc4cnccn4)ccnc3c2)cn1

Ans:
none
none

Give me Descriptors (10 µM) 1 h for each of these compounds, listed below.
1. c1cc(-c2ccc3c(c2)ncc2c4ccccc4[nH]c32)cc(N2CCOCC2)c1
2. CN(C)CCN(C)c1ncc(-c2ccc3c(Nc4cnccn4)ccnc3c2)cn1
3. COc1ccc(NC(=O)c2ccc(-c3cnc(N4CCCN(C)CC4)nc3)cc2O)cc1Cl
4. CN1CCN(c2ncc(-c3ccc4c(NC5CCOCC5)ccnc4c3)cn2)CC1
5. CN1CCN(c2ncc(-c3ccc4c(Nc5cnccn5)ccnc4c3)cn2)CC1

Ans:
1: none; 2: none; 3: none; 4: none; 5: none

Give me Descriptors (10 µM) 1 h for each of these compounds, listed below.
1. COc1ccc(NC(=O)c2ccc(-c3ccc(S(=O)(=O)N4CCN(C)CC4)cc3)cc2O)cc1Cl
2. c1cnc(Nc2ccnc3cc(-c4cnc(N5CCCNCC5)nc4)ccc23)cn1
3. CN1CCN(c2ncc(-c3ccc4c(NC5CCC(N(C)C)CC5)ccnc4c3)cn2)CC1 (stereo not shown)
4. C[C@@H]1CNCCN1C(=O)c1ccc(-c2cccc(N3CCOCC3)c2)cc1N
5. O=S(=O)(c1ccc(-c2ccc3nccc(N[C@@H]4CCCC[C@H]4O)c3c2)cc1)N1CCOCC1 (relative stereo)
6. CC(C)(C)OC(=O)N1CCN(c2ncc(-c3ccc4c(Nc5cnccn5)ccnc4c3)cn2)CC1
7. CN1CCN(c2ncc(-c3ccc4c(N[C@@H]5CCCC[C@H]5O)ccnc4c3)cn2)CC1

Ans:
1. none
2. none
3. none
4. none
5. none
6. none
7. none

---

- Test protocol: Aqueous pH 7.4 solubility
- Type: physicochemical
- Test conditions: aqueous buffer, thermodynamic from solid; phosphate buffer pH 7.4, 25 °C, 20-24 h; read-out: aq sol (aqueous solubility)
What log10 of solubility was measured for each of the following?
Values below are the log10 of the recorded solubility, with µM as the unit.

Cc1ccc2[nH]c3c4ccc(-c5cnc(N6CCCN(C)CC6)nc5)cc4ncc3c2c1 | 1.15
COc1ccc(Nc2ccnc3cc(-c4cnc(N5CCCN(C)CC5)nc4)ccc23)cc1Cl | 0.78
COc1ccc(NC(=O)c2ccc(-c3cccc(N4CCOCC4)c3)cc2O)cc1Cl | -1.00
CN1CCCN(c2ncc(-c3ccc4c(Nc5ccncn5)ccnc4c3)cn2)CC1 | 2.97

Q: Output log10 of solubility of COc1ccc(Nc2ccnc3cc(-c4ccc(S(=O)(=O)N5CCCN(C)CC5)cc4)ccc23)cc1Cl
Ans: -0.52

---

What logD was measured for each of the following?
- Test protocol: Log D7.4 shake-flask octanol-water
- Format: physicochemical
- Test conditions: pH 7.4

Give me logD for each of these molecules, listed below.
1. COc1ccc(NC(=O)c2ccc(-c3cnc(N4CCN(C)CC4)nc3)cc2O)cc1Cl
2. CCN1CCN(c2ncc(-c3ccc4c(Nc5cnccn5)ccnc4c3)cn2)CC1
3. COc1ccc(Nc2ccnc3cc(-c4cnc(N5CCCN(C)CC5)nc4)ccc23)cc1Cl
4. CCCN1CCCN(c2ncc(-c3ccc4c(Nc5cnccn5)ccnc4c3)cn2)CC1
5. CCN1CCCN(c2ncc(-c3cc4nccc(Nc5cnccn5)c4cc3C)cn2)CC1
6. CCCN1CCCN(c2ncc(-c3ccc4c(Nc5cnccn5)ccnc4c3C)cn2)CC1

Ans:
1: 3.8; 2: 3.5; 3: 2.7; 4: 3.3; 5: 2.6; 6: 3.3

---

- Test protocol: Rat hepatocyte Clint
- Format: in vitro ADME
- Test conditions: rat hepatocytes, intrinsic clearance
Returns one of true or false; true when RH CLint is >= 40 µL/min/10^6 cells.

CS(=O)(=O)N1CCN(c2ncc(-c3ccc4c(Nc5cnccn5)ccnc4c3)cn2)CC1 [S2a] | false

Q: Would you say CN(C)CCN(C)c1ncc(-c2ccc3c(Nc4cnccn4)ccnc3c2)cn1 [S2c] shows RH CLint at minimum 40 µL/min/10^6 cells?
Ans: true

Q: Would you say O=S(=O)(c1ccc(-c2ccc3nccc(Nc4ccncn4)c3c2)cc1)N1CCOCC1 [S3a] shows RH CLint at minimum 40 µL/min/10^6 cells?
Ans: false

Q: Would you say C[S+]([O-])CCNc1ncc(-c2ccc3c(Nc4cnccn4)ccnc3c2)cn1 (stereo not drawn) [S2b] shows RH CLint at minimum 40 µL/min/10^6 cells?
Ans: false

Q: Would you say O=S(=O)(c1ccc(-c2ccc3nccc(NCCC4CCOCC4)c3c2)cc1)N1CCOCC1 [S3h] shows RH CLint at minimum 40 µL/min/10^6 cells?
Ans: true

Q: Would you say Fc1cccc(COc2ccc(Nc3ncnc4ccc(-c5cccc(N6CCOCC6)c5)cc34)cc2Cl)c1 [compound 2] shows RH CLint at minimum 40 µL/min/10^6 cells?
Ans: true

---

What hepatocyte CLint was measured for each of the following?
- Test protocol: Rat hepatocyte Clint
- Assay type: in vitro ADME
- Test conditions: rat hepatocytes, intrinsic clearance; read-out: RH CLint

COc1ccc(NC(=O)c2ccc(-c3ccc(S(=O)(=O)N4CCN(C)CC4)cc3)cc2O)cc1Cl [7c] | 300 µL/min/1e6 cells
Cc1cc2c(Nc3cnccn3)ccnc2cc1-c1cnc(N2CCCN(C)CC2)nc1 [8b] | 42 µL/min/1e6 cells
O=C(O)CN1CCN(c2ncc(-c3ccc4c(Nc5cnccn5)ccnc4c3)cn2)CC1 [3b] | 8.9 µL/min/1e6 cells
COc1ccc(NC(=O)c2ccc(-c3cnc(N4CCCN(C)CC4)nc3)cc2O)cc1Cl [7b] | 120 µL/min/1e6 cells
COc1ccc(Nc2ccnc3cc(-c4ccc(S(=O)(=O)N5CCCN(C)CC5)cc4)ccc23)cc1Cl [5e] | 15 µL/min/1e6 cells
O=C(O)C1CCCN1c1ncc(-c2ccc3c(Nc4cnccn4)ccnc3c2)cn1 (stereo not shown) [3c] | < 1 µL/min/1e6 cells
COc1ccc(NC(=O)c2ccc(-c3cnc(N4CCN(C)CC4)nc3)cc2O)cc1Cl [7a] | 300 µL/min/1e6 cells
CN1CCCN(c2ncc(-c3ccc4c(Nc5cnccn5)ccnc4c3)cn2)CC1 [4d] | 54 µL/min/1e6 cells

Give me hepatocyte CLint for each of these compounds, listed below.
1. COC(=O)C1CCCN1c1ncc(-c2ccc3c(Nc4cnccn4)ccnc3c2)cn1 (stereo not shown) [3d]
2. CN(CCNc1ncc(-c2ccc3c(Nc4cnccn4)ccnc3c2)cn1)C(=O)OC(C)(C)C [3e]
3. Cc1c(-c2cnc(N3CCN(C)CC3)nc2)ccc2c(Nc3cnccn3)ccnc12 [9a]
4. CCN1CCCN(c2ncc(-c3ccc4c(Nc5cnccn5)ccnc4c3)cn2)CC1 [4e]
5. CN1CCN(c2ncc(-c3ccc4c(NC5CCC(N(C)C)CC5)ccnc4c3)cn2)CC1 (stereo not shown) [S1a]
6. CCCN1CCCN(c2ncc(-c3cc4nccc(Nc5cnccn5)c4cc3C)cn2)CC1 [8d]
7. Cc1cnc(Nc2ccnc3cc(-c4cnc(N5CCCN(C)CC5)nc4)ccc23)cn1 [5b]

Ans:
230 µL/min/1e6 cells
> 300 µL/min/1e6 cells
52 µL/min/1e6 cells
30 µL/min/1e6 cells
4.2 µL/min/1e6 cells
35 µL/min/1e6 cells
24 µL/min/1e6 cells

Give me hepatocyte CLint for each of these compounds, listed below.
1. CCCN1CCCN(c2ncc(-c3ccc4c(Nc5cnccn5)ccnc4c3)cn2)CC1 [4f]
2. O=S(=O)(c1ccc(-c2ccc3nccc(Nc4ncccn4)c3c2)cc1)N1CCOCC1 [S3b]

Ans:
1. 32 µL/min/1e6 cells
2. 85 µL/min/1e6 cells

Give me hepatocyte CLint for each of these compounds, listed below.
1. CCCN1CCCN(c2ncc(-c3ccc4c(Nc5cnccn5)ccnc4c3C)cn2)CC1 [9d]
2. CN1CCCN(S(=O)(=O)c2ccc(-c3ccc4c(Nc5ccc(Cl)cn5)ccnc4c3)cc2)CC1 [5f]

Ans:
36 µL/min/1e6 cells
30 µL/min/1e6 cells
